# Tested on: panel of 55 breast cancer cell lines
# ASSAY_PROCEDURE: Cell growth inhibition assay (Cell Titer Glo, 72 h, 9 doses; GI50, TGI, LC50)
# Type: cell-based, human
# RUN_PARAMETERS: MDAMB453 cell line; censored GI50 values; value is the negative log10 of mol/L
MEASUREMENT_KIND: GI50
Give bare numbers.

- MOLECULE: "O=c1[nH]c2ccccc2n1C1CCN(Cc2ccc(-c3nc4cc5[nH]cnc5cc4nc3-c3ccccc3)cc2)CC1"
  ASSAYED_TARGET: "panel of 55 breast cancer cell lines"
  GI50: 5.73
- MOLECULE: "C=CCNC1=C2C[C@@H](C)C[C@H](OC)[C@H](O)[C@@H](C)/C=C(\\C)[C@H](OC(N)=O)[C@@H](OC)/C=C\\C=C(/C)C(=O)NC(=CC1=O)C2=O"
  ASSAYED_TARGET: "panel of 55 breast cancer cell lines"
  GI50: 7.14
- MOLECULE: "CC(C)Oc1ccc(C(=O)N[C@H](CNC(=O)CN(C)C)Cc2ccc(-c3cn4cccc([C@H](C)O)c4n3)cc2)cc1Cl"
  ASSAYED_TARGET: "panel of 55 breast cancer cell lines"
  GI50: 6.96
- MOLECULE: "C[C@@H](Oc1cc(-n2cnc3ccc(CN4CCN(C)CC4)cc32)sc1C(N)=O)c1ccccc1C(F)(F)F [GSK461364A]"
  ASSAYED_TARGET: "panel of 55 breast cancer cell lines"
  GI50: 7.97
- MOLECULE: "N#Cc1c(NC(=O)c2cccc3ccccc23)sc2c1CCCC2"
  ASSAYED_TARGET: "panel of 55 breast cancer cell lines"
  GI50: 6.12
- MOLECULE: "CNC(=O)c1c(F)cccc1Nc1nc(Nc2cc3c(cc2OC)CCN3C(=O)CN(C)C)nc2[nH]ccc12 [GSK1838705A]"
  ASSAYED_TARGET: "panel of 55 breast cancer cell lines"
  GI50: 5.07

Hi! Can you tell me GI50 for each of these molecules?
1. CC(/C=C/C(=O)NO)=C\[C@@H](C)C(=O)c1ccc(N(C)C)cc1
2. N.N.O=C([O-])C1(C(=O)[O-])CCC1.[Pt+2]
3. CC(=O)Nc1cccc(-n2c(=O)n(C3CC3)c(=O)c3c(Nc4ccc(I)cc4F)n(C)c(=O)c(C)c32)c1.C[S+](C)[O-] [GSK1120212B]
4. Cc1cc(C(=O)N2CCN(c3cccc(Cl)c3)CC2)n(-c2ccccc2)n1 [XRP44X]
5. CCNCCCCNCCCCNCCCCNCCCCNCC=CCNCCCCNCCCCNCCCCNCCCCNCC.Cl.Cl.Cl.Cl.Cl.Cl.Cl.Cl.Cl.Cl (stereo in doubt)

Result block:
[5.23, 4.23, 6.61, 6.20, 6.28]

Provenance of the data: patent US10770169B2
